# experimental target: UniProt P07333
# Sequence (P07333 539-972 limits assumed): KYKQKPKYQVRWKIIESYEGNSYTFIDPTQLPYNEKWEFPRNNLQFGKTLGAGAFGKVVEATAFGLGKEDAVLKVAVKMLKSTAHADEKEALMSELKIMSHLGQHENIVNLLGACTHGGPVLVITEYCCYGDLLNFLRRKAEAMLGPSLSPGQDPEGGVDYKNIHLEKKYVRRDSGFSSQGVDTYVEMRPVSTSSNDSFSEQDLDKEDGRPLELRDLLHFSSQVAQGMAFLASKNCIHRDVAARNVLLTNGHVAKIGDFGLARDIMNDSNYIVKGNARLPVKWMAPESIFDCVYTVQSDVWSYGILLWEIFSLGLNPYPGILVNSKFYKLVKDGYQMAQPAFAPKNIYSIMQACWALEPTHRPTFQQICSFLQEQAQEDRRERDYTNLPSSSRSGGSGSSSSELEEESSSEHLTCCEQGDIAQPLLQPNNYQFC
# experimental details: CSF1R enzymatic inhibition, TR-FRET-based LANCE Ultra assay
# Type: biochemical
# recorded conditions: single 8-point titrations, ATP concentration 25 µM, read-out: Enz. IC50
# IC50 values compiled below

Answered cases to consult:
# compound, IC50
rows = [
    ("Cc1ccc(Cn2cc(-c3cc4c(N(C)CC5CCOCC5)ncnc4[nH]3)nn2)cc1 [Compound 25b]", "< 1 nM"),
    ("Cc1cccc(CN(C)c2ncnc3[nH]c(-c4cn(CC5CCOCC5)nn4)cc23)c1 [Compound 31a]", "< 1 nM"),
]

Continue with the next compound.
Q: Entry Cc1cccc(CN(C)c2ncnc3[nH]c(-c4cn(Cc5cccnc5)nn4)cc23)c1 [Compound 27a] : reported IC50 = ?
A: < 1 nM
